Field: inhibition at 10 µM. Provide a value for each of the compounds that follow.
Assay: HCV replicon assay (luciferase reporter, ET cell line)
Format: cell-based
Conditions: Hepatitis C virus, HCV replicon luciferase activity in ET cells
Your reply should be a number followed by the unit it is expressed in.

See these solved cases before continuing.
INSERT INTO results (compound, quantity_kind, observed_measurement) VALUES
  ('O=C(c1nc2c(C(F)(F)F)cc(-c3cn[nH]c3)cn2c1-c1cn[nH]c1)N1CCC(c2cccc(F)c2)C1 (centres unmarked)', 'inhibition at 10 µM', '65.8%'),
  ('O=C(c1nc2c(C(F)(F)F)cc(-c3ccoc3)cn2c1Cl)N1CCC(n2c(=O)[nH]c3ccccc32)CC1', 'inhibition at 10 µM', '6%'),
  ('CN(Cc1cccs1)C(=O)c1nc2c(C(F)(F)F)cc(-c3ccoc3)cn2c1Cl', 'inhibition at 10 µM', '37.7%'),
  ('COC(=O)Cc1c(C(=O)NCc2cccs2)nc2c(C(F)(F)F)cc(-c3ccoc3)cn12', 'inhibition at 10 µM', '66.1%'),
  ('O=C(NCc1cccs1)c1cc2cc(-c3ccccc3)cc(Cl)c2[nH]1', 'inhibition at 10 µM', '60.8%');

Respectfully, I request inhibition at 10 µM for each entry included below.
1. O=C(NCc1cccs1)c1nc2c(C(F)(F)F)cc(-c3ccccc3)cn2c1Br
2. COc1ccc(F)c(C2=CCN(C(=O)c3nc4c(C(F)(F)F)cc(-c5ccoc5)cn4c3Cl)CC2)c1F
3. O=C(c1nc2c(C(F)(F)F)cc(-c3cn[nH]c3)cn2c1Cl)N1CC=C(c2nccs2)C1

## Output
1: 97.9%; 2: 64.9%; 3: 99.2%

----------
Test: HCV replicon assay (luciferase reporter, ET cell line)
Type: cell-based
Settings: Hepatitis C virus, HCV replicon luciferase activity in ET cells
Quantity kind: inhibition at 10 µM (%)
Numbers only, in %.

See these solved cases before continuing.
INSERT INTO results (compound, quantity_kind, observed_measurement) VALUES
  ('O=C(Cc1cccs1)NCc1cn2cc(-c3ccoc3)cc(C(F)(F)F)c2n1 [Compound 388]', 'inhibition at 10 µM', 97.2),
  ('O=C(NCc1cccs1)c1cc2cc(-c3cn[nH]c3)cc(Cl)c2[nH]1 [Compound 347]', 'inhibition at 10 µM', 0.1),
  ('N#Cc1ccccc1C1CCN(C(=O)c2nc3c(C(F)(F)F)cc(-c4cn[nH]c4)cn3c2Cl)CC1 [Compound 607]', 'inhibition at 10 µM', 92.2),
  ('O=C(c1cn2cc(-c3cn[nH]c3)cc(C(F)(F)F)c2n1)N1CCC(c2ccccc2F)C1 (centres unmarked) [Compound 377]', 'inhibition at 10 µM', 94.2),
  ('O=C(c1nc2c(C(F)(F)F)cc(-c3ccoc3)cn2c1Cl)N1CCC(c2ccncc2)C1 (centres unmarked) [Compound 454]', 'inhibition at 10 µM', 96.1);

Respectfully, I request inhibition at 10 µM for each entry included below.
1. O=C(NCc1cccs1)c1nc2c(C(F)(F)F)cc(-c3ccc(C(F)(F)F)cc3)cn2c1Cl [Compound 199]
2. Cc1cscc1-c1cc(C(F)(F)F)c2nc(C(=O)NCc3cccs3)c(Cl)n2c1 [Compound 209]
3. O=C(c1nc2c(C(F)(F)F)cc(-c3ccoc3)cn2c1Cl)N1CCC(c2ccccc2)CC1 [Compound 535]

## Output
1. 41
2. 83.4
3. 86.6

----------
Assay: HCV replicon assay (luciferase reporter, ET cell line)
Assay type: cell-based
Settings: Hepatitis C virus, HCV replicon luciferase activity in ET cells
Protocol: A cell line, ET (Huh-lucubineo-ET) is used for screening of compounds for inhibiting HCV RNA dependent RNA polymerase. […] Luciferase activity is measured 48-72 hours later by adding a lysis buffer and the substrate (Catalog number Glo-lysis buffer E2661 and Bright-Glo luciferase system E2620 Promega, Madison, Wis.). […] Under the same condition, cytotoxicity of the compounds are determined using cell proliferation reagent, WST-1 (Roche, Germany). […]
Field: inhibition at 10 µM. Provide a value for each of the compounds that follow.
One number for each entry, in %.

See these solved cases before continuing.
INSERT INTO assay_data (compound, quantity_kind, observed_measurement) VALUES
  ('O=C(NCc1cccs1)c1nc2c(/C=C/c3ccccc3)cc(-c3ccccc3)cn2c1Cl', 'inhibition at 10 µM', 100),
  ('O=C(NCc1cccs1)c1nc2c(C(F)(F)F)cc(-c3cn[nH]n3)cn2c1Cl', 'inhibition at 10 µM', 88.2),
  ('O=C(c1nc2c(C(F)(F)F)cc(-c3ccoc3)cn2c1Cl)N1CCC(c2ccccn2)C1 (centres unmarked)', 'inhibition at 10 µM', 93.9),
  ('O=C(c1nc2c(C(F)(F)F)cc(-c3ccoc3)cn2c1Cl)N1CC=C(c2cscn2)CC1', 'inhibition at 10 µM', 99.4),
  ('O=C(NCc1cccs1)c1cc2cc(-c3ccccc3)cc(C(F)(F)F)n2n1', 'inhibition at 10 µM', 82.4),
  ('O=C(c1nc2c(C(F)(F)F)cc(-c3ccco3)cn2c1Cl)N1CCCC(c2ccccc2)C1 (centres unmarked)', 'inhibition at 10 µM', 60.3),
  ('O=C(c1nc2c(C(F)(F)F)cc(-c3ccoc3)cn2c1Cl)N1CCC(c2ccccc2)C1 (centres unmarked)', 'inhibition at 10 µM', 96);

// below: inhibition at 10 µM requested for another compound
Briefly, inhibition at 10 µM measured for `O=C(NCc1cccs1)c1nc2c(C(F)(F)F)cc(-c3cccs3)cn2c1Cl` : 99.4

----------
Assay: HCV replicon assay (luciferase reporter, ET cell line)
Assay type: cell-based
Details: Hepatitis C virus, HCV replicon luciferase activity in ET cells
Assign 1 (yes) to entries whose inhibition at 10 µM meets or exceeds 80%; assign 0 (no) to the rest.

INSERT INTO assay_data (compound, label) VALUES
  ('CS(=O)(=O)N[C@@H]1CCN(C(=O)c2nc3c(C(F)(F)F)cc(-c4ccoc4)cn3c2Cl)C1 [Compound 480]', '0 (no)');

## Input Hello, I need to know if O=C(NCc1cccs1)c1nc2c(C(F)(F)F)cc(-c3ccoc3)cn2c1[N+](=O)[O-] [Compound 232] has measured inhibition at 10 µM not below 80%. Thanks!
## Output 0 (no)

## Input Hello, I need to know if O=C(NC1CN(C(=O)Cc2ccccc2)C1)c1nc2c(C(F)(F)F)cc(-c3ccoc3)cn2c1Cl [Compound 514] has measured inhibition at 10 µM not below 80%. Thanks!
## Output 0 (no)

## Input Hello, I need to know if O=C(c1nc2c(C(F)(F)F)cc(-c3ccoc3)cn2c1Cl)N1CCC(c2nccs2)CC1 [Compound 556] has measured inhibition at 10 µM not below 80%. Thanks!
## Output 1 (yes)

## Input Hello, I need to know if COc1ccc(C2CCN(C(=O)c3nc4c(C(F)(F)F)cc(-c5ccoc5)cn4c3Cl)C2)cc1OC (centres unmarked) [Compound 339] has measured inhibition at 10 µM not below 80%. Thanks!
## Output 0 (no)

## Input Hello, I need to know if O=C(c1nc2c(C(F)(F)F)cc(-c3ccoc3)cn2c1Cl)N1CC=C(c2cn[nH]c2)CC1 [Compound 579] has measured inhibition at 10 µM not below 80%. Thanks!
## Output 1 (yes)

## Input Hello, I need to know if O=C(c1nc2c(C(F)(F)F)cc(-c3cn[nH]c3)cn2c1Cl)N1CC[C@H](c2ccccc2)C1 [Compound 466] has measured inhibition at 10 µM not below 80%. Thanks!
## Output 1 (yes)

----------
Assay: HCV replicon assay (luciferase reporter, ET cell line)
Format: cell-based
Details: Hepatitis C virus, HCV replicon luciferase activity in ET cells
Field: inhibition at 10 µM. Provide a value for each of the molecules that follow.
One number for each entry, in %.

INSERT INTO assay_data (molecule, observed_measurement) VALUES
  ('O=C(c1nc2c(C(F)(F)F)cc(C3=CCNCC3)cn2c1Cl)N1CCC(c2cccc(F)c2)C1 (stereo not shown)', 73.3),
  ('O=C(c1nc2c(C(F)(F)F)cc(-c3ccoc3)cn2c1Cl)N1CCCC(c2ccccc2F)C1 (stereo not shown)', 94.7),
  ('O=C(NCC1CCCCC1)c1nc2c(C(F)(F)F)cc(-c3ccco3)cn2c1Cl', 58);

Respectfully, I request inhibition at 10 µM for each entry included below.
1. O=C(Cc1ccccc1)NCc1cn2cc(-c3ccoc3)cc(C(F)(F)F)c2n1
2. C[C@@H](CNC(=O)c1nc2c(C(F)(F)F)cc(-c3ccoc3)cn2c1Cl)c1ccccc1 (stereo in doubt)
3. O=C(NCC1CC1)c1nc2c(C(F)(F)F)cc(-c3ccco3)cn2c1Cl
4. CC(C)c1cc(-c2ccccc2)cn2cc(C(=O)N3CCC(c4cccc(F)c4)C3)nc12 (stereo not shown)
5. O=C(NCC1CCCO1)c1cc2cc(-c3ccccc3)cc(I)n2n1 (stereo not shown)
6. O=C(c1nc2c(C(F)(F)F)cc(-c3ccoc3)cn2c1Cl)N1CCC(c2cccc(F)c2)CC1
7. CS(=O)(=O)NC1CN(C(=O)c2nc3c(C(F)(F)F)cc(-c4cn[nH]c4)cn3c2Br)C1
8. O=C(NCCc1cccc(F)c1)c1nc2c(C(F)(F)F)cc(-c3ccoc3)cn2c1Cl

## Output
1. 95.8
2. 82.8
3. 50.3
4. 42.4
5. 49.2
6. 74
7. 88.6
8. 82.5

Measured values drawn from patent US20120121540A1 for this set.
